Source: patent US10562844B2

The reader will find pIC50 measurements below, all made with human HYPDH (Homo sapiens (Human), UniProt Q9UF12).
Sequence (Q9UF12 71-439 limits assumed): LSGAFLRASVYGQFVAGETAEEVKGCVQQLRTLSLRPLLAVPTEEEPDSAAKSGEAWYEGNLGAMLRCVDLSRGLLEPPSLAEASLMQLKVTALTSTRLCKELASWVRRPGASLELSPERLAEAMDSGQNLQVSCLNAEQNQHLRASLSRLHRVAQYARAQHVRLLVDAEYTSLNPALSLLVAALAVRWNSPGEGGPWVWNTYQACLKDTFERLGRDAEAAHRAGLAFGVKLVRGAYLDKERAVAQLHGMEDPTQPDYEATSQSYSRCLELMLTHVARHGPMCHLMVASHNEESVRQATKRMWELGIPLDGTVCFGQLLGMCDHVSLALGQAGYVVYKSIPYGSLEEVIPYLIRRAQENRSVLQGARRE
pIC50: −log10 of the molar value.
REPORTED METRIC: pIC50

• O=C(O)C1CCC(O)C1 (stereo not shown) [Compound 5] = 2.68
• O=C1CC[C@@H](C(=O)O)C1 [Compound 11] = 3.43
• O=C(O)C1CC[C@H](O)C1 (stereo partly shown) [Compound 7] = 3.22
